FYI, the data here is from PubChem BioAssay (NCI).

Tested on: RXF 393 renal
assay: NCI-60 one-dose screen, 48 h (100 = growth as untreated, 0 = no growth, -100 = all killed)
conditionLabel: 10 µM unless noted
About 83,000 compounds went through this panel and 20% of them were active in at least one assay; those are over-represented in the sample as a whole.
metric: growth (%)
Report only the number, with the unit % understood.

Q. Report growth for "C=C1C(=O)O[C@H]2[C@H]1CC/C(COC(=O)CCC(=O)NCCOCCOCC(=O)Nc1ccc(OC)c(C(N)=O)c1O)=C\CC[C@@]1(C)O[C@@H]21" please.
A. 67.9

Q. Cool, now "O=C1NC(=O)C(c2ccccc2)(c2ccccc2)N1Cc1cn(-c2c3ccccc3nc3ccccc23)nn1"
A. 85.6

Q. Cool, now "Cc1nc(NC(=O)COc2ccc(/C=C3\Cc4ccc(Cl)cc4C3=O)cc2)sc1C"
A. 135

Q. Cool, now "CN(C)CCS(=O)(=O)Nc1cc(-c2ccc3ncc(C#N)c(Nc4ccc(F)c(Cl)c4)c3c2)cnc1Cl"
A. -56

---

System: DU-145 prostate
assay: NCI-60 one-dose screen, 48 h (100 = growth as untreated, 0 = no growth, -100 = all killed)
conditionLabel: 10 µM unless noted
Compounds without any hit were thinned out: in the full panel of roughly 83,000, 20% have a hit.
# label = bin(measured growth), where bins are Low = under 60%, Medium = from 60% up to 90%, High = 90% and over

Q. Into which bin does this molecule go? "COc1ccc(-c2cc(-c3cc(OC)c(OC)c(OC)c3)nc(N3CCOCC3)c2C#N)cc1"
A. High

Q. Cool, now "N#Cc1cccc(NC(=O)c2cc(-c3ccc(F)cc3F)ccc2O)c1"
A. Low

Q. Cool, now "Cc1c(C(=O)NCCN2CCOCC2)cn2ncnc(Oc3ccc(NC(=O)Nc4ccc(Cl)c(C(F)(F)F)c4)cc3)c12"
A. Low

Q. Cool, now "CNC(=O)c1[nH]cc(-c2ccccc2)c1-c1cc(OC)c2c(c1OC)OCO2"
A. High

Q. Cool, now "CC/C=C\C[C@@H]1C/C=C2/C(=O)C=C[C@H]2C/C=C\CCCC(=O)O1"
A. Low

Q. Cool, now "Cc1ccc(S(=O)(=O)Oc2ccc(NC(=O)c3ccc(Cl)cc3)cc2)cc1"
A. High

Q. Cool, now "Nc1nc(-c2cccc3ccccc23)cc2ccccc12"
A. Low

Q. Cool, now "CCc1ccccc1-n1c(N)c(C#N)c(-c2ccc(Cl)cc2)c(C#N)c1=O"
A. High

Q. Cool, now COc1cc(OCc2cccc(-c3ccc(C(O)c4nccs4)cc3)c2C)cc(OC)c1CNCCNC(C)=O (stereo not drawn)
A. High

Q. Cool, now "COc1cccc(Cc2cc(-c3ccccc3)nn(CC(=O)c3ccccc3)c2=O)c1"
A. Medium

Q. Cool, now "c1ccc2c(-c3nc(-c4c[nH]c5ccncc45)cs3)c[nH]c2c1"
A. Low

Q. Cool, now "COc1nc2ccc(C)cc2cc1-c1nc2c(cnn2-c2ccc(Br)cc2)c(=O)[nH]1"
A. Low

Q. Cool, now CC(=O)N1CCN(c2ccc(OCC3CO[C@](Cn4ccnc4)(c4ccc(Cl)cc4Cl)O3)cc2)CC1 (stereo partly drawn)
A. High

Q. Cool, now COc1cc(C(=O)N2N=C(c3ccc(S(C)(=O)=O)cc3)CC2c2ccco2)cc(OC)c1OC (stereo not drawn)
A. Medium

Q. Cool, now "CCCCCCNC(=O)Oc1ccc(/C(=C(\C)c2ccc(Cl)cc2)c2ccc(OCCN(CC)CC)cc2)cc1"
A. Medium

Q. Cool, now "COc1ccc(-c2nc(NCCO)[nH]c(=O)c2C#N)cc1"
A. High

Q. Cool, now "CN(C)CC#Cc1ccc2ncc(C#N)c(Nc3ccc(F)c(Cl)c3)c2c1"
A. Low

Q. Cool, now "CCOC(=O)c1sc2ncc(-c3ccc(C)cc3)n2c1C"
A. High

Q. Cool, now CC(=O)OC[C@H]1OC(Sc2sc(C(=O)c3ccc(Cl)cc3)c(N)c2-c2nc3ccccc3s2)[C@H](OC(C)=O)[C@@H](OC(C)=O)[C@@H]1OC(C)=O (stereo partly drawn)
A. Medium

Q. Cool, now "C=C(C)[C@@H]1CC[C@]2(N=C=O)CC[C@]3(C)[C@H](CC[C@@H]4[C@@]5(C)Cc6c([nH]c7ccccc67)C(C)(C)[C@@H]5CC[C@]43C)[C@@H]12"
A. Medium

Q. Cool, now "COc1ccc(CNC(=O)C(=O)[C@H](Cc2ccccc2)NC(=O)c2[nH]c3ccccc3c(=O)c2C)cc1"
A. High

Q. Cool, now "CN1CCN(c2ccc(-c3cnc4c(-c5csc6ccccc56)cnn4c3)cc2)CC1"
A. Low

Q. Cool, now "O=C(/C=C/c1sc(Cl)nc1Cl)c1ccc(Br)cc1"
A. High

Q. Cool, now "NCCNc1nc2ccccc2c2c(=O)c3cc(F)ccc3sc12"
A. Medium

Q. Cool, now "Cc1nn(-c2ccccc2)c(-n2ccnc2)c1/C=N/Nc1nc(-c2ccc(Cl)c(Cl)c2)cs1"
A. Low

Q. Cool, now "COc1ccc(NC(=O)n2nc(/C=C\c3ccc(O)c(OC)c3)cc2/C=C\c2ccc(O)c(OC)c2)cc1"
A. Low

Q. Cool, now "O=C(Nc1ccc(OS(=O)(=O)c2ccc(F)cc2)cc1)c1ccc(Cl)cc1"
A. High

Q. Cool, now "CC(C)C(=O)Nc1ccc(-c2nc(-c3cccc(OCCN4CCOCC4)c3)c(-c3ccnc(Br)c3)[nH]2)cc1"
A. Medium

Q. Cool, now "O=C(CCc1nnc(-c2c(Cl)cccc2Cl)o1)c1nc2ccccc2[nH]1"
A. Medium

Q. Cool, now "CCCCNC(=O)Oc1ccc(/C(=C(\C)c2ccc(Cl)cc2)c2ccc(OCCN(CC)CC)cc2)cc1"
A. Medium

Q. Cool, now "c1ccc2c(c1)Nc1ccncc1S2"
A. High

Q. Cool, now "COc1cccc2c(=O)c3c(sc12)c(NCCCN)nc1ccccc13"
A. Low

Q. Cool, now "COc1ccc(-c2cc(-c3ccc(Cl)cc3)c(C#N)c(=O)n2CCCCCC(=O)Nc2ccccc2N)cc1"
A. Low

---

Tested on: MDA-MB-231 breast
assay: NCI-60 one-dose screen, 48 h
conditionLabel: 10 µM unless noted
About 83,000 compounds went through this panel and 20% of them were active in at least one assay; those are over-represented in the sample as a whole. Active and inactive are the calls of the source. Rule for the calls: active = growth percent below 10; inactive = the rest.
Pick one: active, inactive

Q. Kindly provide the recorded test outcome for the following compound: "CC[C@H](C)C(=O)O[C@H]1CCC=C2C=C[C@H](C)[C@H](CC[C@@H]3CC=CC(=O)O3)[C@H]21"
A. inactive

Q. Cool, now "Cc1nc(/N=C(\N)NC(=O)Nc2cccc(Cl)c2)sc1C"
A. inactive

Q. Cool, now "N#Cc1cccc(NC(=O)c2cc(-c3ccc(F)cc3F)ccc2O)c1"
A. active

Q. Cool, now COc1ccc([C@H]2c3cc(OC)c(OC)cc3C=C(C=O)C2CO)cc1OC (some centres not stated)
A. inactive

Q. Cool, now "CCOC(=O)c1cn2ncnc(Oc3ccc(NC(=O)NCCN(C)C)c(Cl)c3)c2c1C"
A. inactive

Q. Cool, now "CCN(CC)CCNC(=O)c1cn2ncnc(Oc3ccc(NC(=O)Nc4ccc(Cl)c(C(F)(F)F)c4)cc3)c2c1C"
A. active

Q. Cool, now "CC(=O)CC[C@H]1C(=O)N[C@@H](C(C)C)C(=O)N[C@@H](Cc2cc(O)cc(F)c2)C(=O)N2CCC[C@H](N2)C(=O)O[C@H](/C(C)=C/C=C/C(=O)OC(C)(C)C)C/C=C/C=C/[C@H](O)[C@H](C)[C@H]1O"
A. inactive

Q. Cool, now "O=C1/C(=C/c2ccccc2[N+](=O)[O-])Oc2ccc(O)c(O)c21"
A. inactive

Q. Cool, now "CCCCNc1nc(NN2C(=O)c3cccc4cccc(c34)C2=O)nc(-n2cnc3ccccc32)n1"
A. inactive

Q. Cool, now "COc1cc(C(=O)N/N=C/c2cc3cc(OCc4ccccc4)ccc3nc2OC)cc(OC)c1OC"
A. inactive

Q. Cool, now "Cc1[nH]c(C(=O)Nc2ccc(C(=O)N3CCNCC3)cc2OC(C)C)c(Cl)c1Cl"
A. inactive

Q. Cool, now "O=c1ccc(N=Nc2ccccc2)ccc1Cl"
A. active

Q. Cool, now COc1ccc(C2C(N)=NNC2c2cccc(O)c2)cc1 (configuration not stated)
A. inactive

Q. Cool, now "COc1cccc(Oc2ccccc2NC(=O)CNC(=O)c2cccc3ccccc23)c1"
A. active

Q. Cool, now OC(c1ccccc1)C(NC(Cc1ccccc1)c1ccccc1)c1ccccc1 (configuration not stated)
A. inactive

Q. Cool, now "COc1ccc(/C=N/Nc2cc(=O)[nH]c3ccc(C)cc23)cc1"
A. inactive

Q. Cool, now "C=C1C(=O)O[C@H]2[C@H]1CC/C(COC(=O)CSCC(=O)OC/C1=C/CC[C@@]3(C)O[C@H]3[C@H]3OC(=O)C(=C)[C@@H]3CC1)=C\CC[C@@]1(C)O[C@@H]21"
A. active

Q. Cool, now "Cn1cc(-c2ccc3cc(-c4ccc(CC(=O)Nc5cc(C(C)(C)C)nn5C)cc4)cnc3c2)cn1"
A. active

Q. Cool, now Cc1ccc(C(=O)NN2C(=O)CSC2c2ccc(Cl)cc2)cn1 (configuration not stated)
A. inactive

Q. Cool, now "CN(C)CCS(=O)(=O)Nc1cc(-c2ccc3ncc(C#N)c(Nc4ccc(F)c(Cl)c4)c3c2)cnc1Cl"
A. active

Q. Cool, now NC[C@@H]1O[C@H](O[C@@H]2[C@@H](CO)OC(O[C@@H]3[C@@H](O)[C@H](N)C[C@H](N)[C@H]3OC3O[C@H](CN)[C@@H](O)[C@H](O)[C@H]3N)[C@@H]2O)[C@H](N)[C@@H](O)[C@@H]1O (some centres not stated)
A. inactive

Q. Cool, now "C[C@]12CC[C@@H]3c4cc(OC(F)F)c(OS(N)(=O)=O)cc4CC[C@H]3[C@@H]1CC[C@@H]2OS(N)(=O)=O"
A. inactive

Q. Cool, now "O=c1c2cc(F)ccc2sc2c(NCCCNCCO)nc3ccc(F)cc3c12"
A. active

Q. Cool, now COc1cc(C2CC(c3ccc(N(C)C)cc3)=NN2C(C)=O)cc(OC)c1OC (configuration not stated)
A. inactive

Q. Cool, now "COc1c(B(O)O)cc(F)cc1-c1nc2ccc3[nH]ncc3c2c2c1CCCC2"
A. inactive

Q. Cool, now "O=c1c2cc(F)ccc2sc2c(N3CCNCC3)nc3ccc(F)cc3c12"
A. active

Q. Cool, now CC([C@H]1CCC2C3CCC4C[C@@H](NC=O)CC[C@]4(C)C3CC[C@@]21C)N(C)C (some centres not stated)
A. active

Q. Cool, now COc1ccc(-c2cc3c4c(nc5ccccc5c4c2)CC(c2cc(OC)c(OC)c(OC)c2)O3)cc1 (configuration not stated)
A. inactive

Q. Cool, now "CCc1cccc2c1S/C(=C/c1ccc(OC)cc1)C2=O"
A. inactive

Q. Cool, now "C(=N/Nc1ncnc2nc[nH]c12)/c1ccccn1"
A. inactive

Q. Cool, now "COc1cc(C(=O)c2cc(C)c3[nH]c4ccc(O)cc4c3c2C)cc(OC)c1OC"
A. inactive

Q. Cool, now CC(C)(C)NC(=O)C(OC(=O)c1cccc(Cl)c1)c1ccc(Cl)cc1 (configuration not stated)
A. inactive
